target_system: T1, MntR E11K (Bacillus subtilis, UniProt P54512 1-142, E11K)
T1 sequence: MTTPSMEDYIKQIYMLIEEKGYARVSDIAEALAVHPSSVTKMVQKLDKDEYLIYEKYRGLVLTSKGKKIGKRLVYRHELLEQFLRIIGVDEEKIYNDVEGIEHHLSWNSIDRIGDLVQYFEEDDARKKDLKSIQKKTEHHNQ
assay_protocol: fluorescence anisotropy

>  <binder>
mntH operator 21 bp (dsDNA) DNA 1: GAGTTTCCTTAAGGCAAATTG DNA 2: CAATTTGCCTTAAGGAAACTC

>  <unit_symbol>
nM

>  <Kd>
6.5

$$$$
